Measured pKd accompanies every entry in the list below.
Target: T1, recombinant FAP protein (BioLegend), biotinylated (Homo sapiens (Human), UniProt Q12884 26-760, Biotinylated (sites not given) for loading on streptavidin sensors. Any vendor tag is not stated in the passages shown.)
T1 construct: Loaded on streptavidin sensors for BLI; also called biotinylated FAP
T1 sequence: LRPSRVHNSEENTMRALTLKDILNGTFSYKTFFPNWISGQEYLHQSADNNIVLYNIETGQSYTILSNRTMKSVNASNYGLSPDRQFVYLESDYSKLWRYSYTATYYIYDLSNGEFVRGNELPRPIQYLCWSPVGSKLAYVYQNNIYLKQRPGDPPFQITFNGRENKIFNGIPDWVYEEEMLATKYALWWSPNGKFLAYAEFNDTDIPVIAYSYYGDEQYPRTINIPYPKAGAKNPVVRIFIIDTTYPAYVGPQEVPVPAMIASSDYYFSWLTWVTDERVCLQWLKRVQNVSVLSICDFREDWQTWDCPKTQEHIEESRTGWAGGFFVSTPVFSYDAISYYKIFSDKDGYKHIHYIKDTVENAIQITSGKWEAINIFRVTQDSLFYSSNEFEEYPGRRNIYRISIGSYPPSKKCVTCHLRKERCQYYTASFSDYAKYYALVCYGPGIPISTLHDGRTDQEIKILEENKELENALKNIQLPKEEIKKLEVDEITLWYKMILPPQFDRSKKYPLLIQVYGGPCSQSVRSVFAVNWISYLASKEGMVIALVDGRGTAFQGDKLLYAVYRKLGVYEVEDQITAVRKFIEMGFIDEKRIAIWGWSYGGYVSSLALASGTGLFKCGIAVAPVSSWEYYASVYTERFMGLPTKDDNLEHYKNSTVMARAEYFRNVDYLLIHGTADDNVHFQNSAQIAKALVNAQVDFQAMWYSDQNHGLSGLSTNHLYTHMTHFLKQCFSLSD
Test: BLI (Octet RED96), biotinylated FAP on streptavidin sensors
Please keep in mind that pKd is minus log10 of the molar concentration; only the number is needed.

Check out these entries, answers already filled in.
Q: Report pKd, nothing else, for this binder: P-1908: 2PE14_N32E (VHH, also called pET28 PelB-2PE14_N32E) VHH: QVQLQESGGGLVQPGGSLRLSCAASGSTFSIEAVAWYRQAPGKRRELVAGISGGGVTNYPDSVKGRFTISRDNAKNTVYLQMSSLKPEDTAVYYCNLWPPRASPGGRVYWGQGTQVTVSS
A: 8.96

Q: Kindly indicate its recorded pKd. Item: P-1901: 2PE14 (VHH, also called pET28 PelB-2PE14) VHH: QVQLQESGGGLVQPGGSLRLSCAASGSTFSINAVAWYRQAPGKRRELVAGISGGGVTNYPDSVKGRFTISRDNAKNTVYLQMSSLKPEDTAVYYCNLWPPRASPGGRVYWGQGTQVTVSS
A: 9.18

Q: Name the recorded pKd of the item P-1922: 2PE14_N32Y (VHH, also called pET28 PelB-2PE14_N32Y) VHH: QVQLQESGGGLVQPGGSLRLSCAASGSTFSIYAVAWYRQAPGKRRELVAGISGGGVTNYPDSVKGRFTISRDNAKNTVYLQMSSLKPEDTAVYYCNLWPPRASPGGRVYWGQGTQVTVSS in your answer.
A: 7.84

Q: Complete the entry with pKd for P-1937: 3PE42_M31S (VHH, also called pET28 PelB-3PE42_M42S) VHH: QVQLQESGGGLVQPGESLRLSCAVSGSTSSSNAMAWYRQAPGKRRELVAGISGGGATNYPDSVKGRFTISRDNAKNTVYLQMSSLKPEDTAVYYCNLWPPRASPGGGVYWGQGTQVTVSS
A: 9.21

Q: Supply pKd value. Item: P-1916: 2PE14_N32Q (VHH, also called pET28 PelB-2PE14_N32Q) VHH: QVQLQESGGGLVQPGGSLRLSCAASGSTFSIQAVAWYRQAPGKRRELVAGISGGGVTNYPDSVKGRFTISRDNAKNTVYLQMSSLKPEDTAVYYCNLWPPRASPGGRVYWGQGTQVTVSS
A: 9.41

Q: Please list pKd recorded for the binder P-1910: 2PE14_N32G (VHH, also called pET28 PelB-2PE14_N32G) VHH: QVQLQESGGGLVQPGGSLRLSCAASGSTFSIGAVAWYRQAPGKRRELVAGISGGGVTNYPDSVKGRFTISRDNAKNTVYLQMSSLKPEDTAVYYCNLWPPRASPGGRVYWGQGTQVTVSS
A: 8.34

Q: Provide pKd value for the following binder: P-1919: 2PE14_N32T (VHH, also called pET28 PelB-2PE14_N32T) VHH: QVQLQESGGGLVQPGGSLRLSCAASGSTFSITAVAWYRQAPGKRRELVAGISGGGVTNYPDSVKGRFTISRDNAKNTVYLQMSSLKPEDTAVYYCNLWPPRASPGGRVYWGQGTQVTVSS
A: 8.39

Here is the next item to consider.
Q: Please give the documented pKd of P-1913: 2PE14_N32K (VHH, also called pET28 PelB-2PE14_N32K) VHH: QVQLQESGGGLVQPGGSLRLSCAASGSTFSIKAVAWYRQAPGKRRELVAGISGGGVTNYPDSVKGRFTISRDNAKNTVYLQMSSLKPEDTAVYYCNLWPPRASPGGRVYWGQGTQVTVSS
A: 8.57

Cited source for all entries: patent US20220332844A1
